test: Induction of […] release in presence of glutathione in 0.1 M phosphate buffer at pH 7.4 at 37 degC by chemiluminescence assay; type: physicochemical
reported.property: Activity (%)

C=CCOC(=O)N1CCN(/[N+]([O-])=N/Oc2ccc([N+](=O)[O-])cc2[N+](=O)[O-])CC1 = 83
C#CCOC(=O)N1CCCN(/[N+]([O-])=N/Oc2ccc([N+](=O)[O-])cc2[N+](=O)[O-])CC1 = 99
O=C(OCCF)N1CCCN(/[N+]([O-])=N/Oc2ccc([N+](=O)[O-])cc2[N+](=O)[O-])CC1 = 87

a = C=CCOC(=O)N1CCCN(/[N+]([O-])=N/Oc2ccc([N+](=O)[O-])cc2[N+](=O)[O-])CC1
b = C[N+]1(C)CCN(/[N+]([O-])=N/Oc2ccc([N+](=O)[O-])cc2[N+](=O)[O-])CC1.[I-]
Input line: // returns a or b , whichever has the lower Activity To answer, give the label that identifies your chosen option.
Output line: b

Where these numbers come from: ChEMBL document CHEMBL1151878
